Hi there, I'd appreciate the recorded % Reduction in ROS production (IQ) for every entry that follows.
System: ubiquinone binding site of complex I (IQ)
ASSAY_OVERVIEW: High-throughput screen: ROS production from ubiquinone binding site of complex I (IQ), isolated skeletal muscle mitochondria
Assay type: biochemical, rat
ASSAY_SETUP: Table 2; 5 mM succinate; compounds 2.5 μM; percent change from DMSO, positive control −100%
Answers are plain numbers, in %.

Recorded results for 3 compounds are shown here.
COMPOUND	% Reduction in ROS production (IQ) [%]
C=CCSc1nc(N)c(C#N)c(CC)c1C#N [Compound 7]	−36.5
CC(=O)Nc1ccc(S(=O)(=O)Nc2cccc(C)c2)cc1 [Compound 10]	−24.1
c1ccc(C2CCC(Nc3ccc4c(c3)OCO4)CC2)cc1 (centres unmarked) [Compound 77]	−18

Lab note: each compound below needs its % Reduction in ROS production (IQ) filled in.
1. COc1ccc(NC(=S)NC(=O)c2ccco2)cc1 [Compound 75]
2. Cc1ccc(NS(=O)(=O)c2ccc(C3CCCCC3)cc2)cc1 [Compound 6]
3. CC(C)(C)C1=NN(c2c(Cl)cc(Cl)cc2Cl)C(=O)C1 [Compound 3]
4. Cc1ccccc1NS(=O)(=O)c1ccc(-c2ccc(S(=O)(=O)Nc3ccccc3C)cc2)cc1 [Compound 12]

OUTPUT:
1: −50; 2: −38.6; 3: −52.4; 4: −20.7

Lab note: each compound below needs its % Reduction in ROS production (IQ) filled in.
1. O=S(=O)(Nc1ccc(Br)cc1)c1ccc(C2CCCCC2)cc1 [Compound 8]
2. Cc1ccccc1NS(=O)(=O)c1ccc(C2CCCCC2)cc1 [Compound 9]
3. COc1ccc(NS(=O)(=O)c2cccc(C(=O)Nc3ccc(C)cc3)c2)cc1 [Compound 11]
4. CCSC1=C(C#N)C2(CCCC2)C(C#N)C(=O)N1 (centres unmarked) [Compound 2]
5. O=[N+]([O-])c1ccc(Oc2ccc(S(=O)(=O)Nc3ccc(F)cc3)cc2)cc1 [Compound 84]
6. O=[N+]([O-])c1ccc(Oc2ccc(S(=O)(=O)Nc3ccc4c(c3)OCCO4)cc2)cc1 [Compound 85]

OUTPUT:
["−36.3", "−31.2", "−23.8", "−52.5", "−47.7", "−50.6"]

Lab note: each compound below needs its % Reduction in ROS production (IQ) filled in.
1. CC(C)(C)NS(=O)(=O)c1ccc2c(c1)C(=O)c1ccccc1C2=O [Compound 1]
2. O=[N+]([O-])c1ccc(Oc2ccc(S(=O)(=O)NC3CCCCC3)cc2)cc1 [Compound 4]
3. O=C(Nc1nn[nH]n1)C1CCCCC1 [Compound 76]
4. CC(C)Cc1ccc(C(C)C(=O)Nc2ccccc2O)cc1 (centres unmarked) [Compound 5]

OUTPUT:
1. −60.6
2. −47.9
3. −24
4. −40.0

----------
SYSTEM_UNDER_TEST: succinate dehydrogenase/complex II (SDH) (Rattus norvegicus, UniProt P21913+Q641Z9+Q6PCT8+Q920L2)
Construct: freshly isolated muscle mitochondria were assayed; from tissue; host or cells: rat skeletal muscle mitochondria (Wistar, Harlan Laboratories)
Sequence (Q920L2 35-656): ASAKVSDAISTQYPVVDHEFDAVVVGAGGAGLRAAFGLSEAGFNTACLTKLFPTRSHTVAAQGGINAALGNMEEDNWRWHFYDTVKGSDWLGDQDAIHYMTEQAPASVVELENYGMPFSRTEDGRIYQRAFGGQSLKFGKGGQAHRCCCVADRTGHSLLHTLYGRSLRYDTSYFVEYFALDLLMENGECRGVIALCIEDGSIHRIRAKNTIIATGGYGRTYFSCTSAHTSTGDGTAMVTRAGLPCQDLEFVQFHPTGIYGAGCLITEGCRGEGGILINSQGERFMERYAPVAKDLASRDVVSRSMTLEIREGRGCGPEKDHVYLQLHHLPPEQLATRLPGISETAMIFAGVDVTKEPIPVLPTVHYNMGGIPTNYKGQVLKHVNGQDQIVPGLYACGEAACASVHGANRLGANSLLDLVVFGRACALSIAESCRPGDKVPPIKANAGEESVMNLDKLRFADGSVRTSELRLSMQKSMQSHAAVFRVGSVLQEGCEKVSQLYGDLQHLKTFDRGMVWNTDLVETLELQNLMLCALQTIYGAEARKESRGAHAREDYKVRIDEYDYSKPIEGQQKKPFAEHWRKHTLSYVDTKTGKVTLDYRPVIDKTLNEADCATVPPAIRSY
Sequence (P21913 31-282): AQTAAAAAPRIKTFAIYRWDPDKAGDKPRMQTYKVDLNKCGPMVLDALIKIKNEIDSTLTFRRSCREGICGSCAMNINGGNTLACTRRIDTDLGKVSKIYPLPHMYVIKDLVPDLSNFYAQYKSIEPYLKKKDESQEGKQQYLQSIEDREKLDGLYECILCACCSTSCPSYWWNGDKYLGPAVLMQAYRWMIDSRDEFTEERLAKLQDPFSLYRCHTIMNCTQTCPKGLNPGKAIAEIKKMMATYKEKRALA
Sequence (Q641Z9 30-169 limits assumed): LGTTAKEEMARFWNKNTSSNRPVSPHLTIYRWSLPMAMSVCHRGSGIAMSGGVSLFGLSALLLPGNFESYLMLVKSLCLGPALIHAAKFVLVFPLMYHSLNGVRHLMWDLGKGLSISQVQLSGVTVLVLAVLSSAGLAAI
Sequence (Q6PCT8 57-159): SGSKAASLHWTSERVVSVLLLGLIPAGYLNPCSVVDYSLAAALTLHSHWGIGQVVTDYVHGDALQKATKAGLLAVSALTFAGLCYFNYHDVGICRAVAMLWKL
ASSAY_OVERVIEW: High-throughput screen: ROS production from succinate dehydrogenase/complex II (SDH)
Assay type: biochemical
ASSAY_SETUP: Table 7; percent change in ROS from DMSO controls
ENDPOINT: inhibition at 2.5 µM (%)
Give bare numbers, in %.

Recorded results for 3 molecules are shown here.
SMILES	ENDPOINT	READOUT_NUMBER
COc1ccc(Cl)cc1N(Cc1ccccc1)Cc1ccccc1	inhibition at 2.5 µM	-3.9
O=S(=O)(Nc1ccc(Br)cc1)c1ccc(C2CCCCC2)cc1	inhibition at 2.5 µM	-0.4
O=C(Nc1ccc(-c2nc3ccccc3[nH]2)cc1)C1CC1	inhibition at 2.5 µM	2.5

Lab note: each molecule below needs its inhibition at 2.5 µM filled in.
1. Cc1ccc(NC(=O)CCC(=O)O)cc1
2. CC(=O)Nc1ccc(-c2nc3ccccc3[nH]2)cc1
3. Fc1ccc(SCCc2ccccn2)cc1
4. C=CCSc1nc(N)c(C#N)c(CC)c1C#N
5. Cc1ccc2[nH]c(-c3ccc(NC(=O)CCC(=O)O)cc3)nc2c1
6. CC(C)(C)NS(=O)(=O)c1ccc2c(c1)C(=O)c1ccccc1C2=O

OUTPUT:
1: 16.8; 2: 5.1; 3: -0.7; 4: -2.1; 5: -4.6; 6: 8.2

INPUT: Which value of inhibition at 2.5 µM has been reported for Oc1nnc(Cc2ccncc2)c2ccccc12 in the records?
OUTPUT: 27.4
